system: recombinant His-tag Wip1(2-420) protein (amino acids #2-420) (Homo sapiens (Human))
assay procedure: Wip1(2-420) phosphatase enzyme FDP assay
measurement context: fluorescein diphosphate (FDP) substrate, RT 2 hours, fluorescence Ex485/Em535; read-out: WIP1 (Truncated 2-420) FDP Assay: IC50
pIC50: −log10 of the molar value.
readout kind: pIC50

                                   molecule  result_number
0  COc1ccccc1-c1ncc(Cl)cc1N[C@@H](C)c1ccc(C(=O)N[C@@H](CC2CCCC2)C(=O)NC2CC2)s1           8.15

P: CC[C@H](Nc1cc(Cl)cnc1C)c1ccc(C(=O)N[C@@H](CC2CCCC2)C(=O)NC2CC2)s1
Q: CC(Nc1cc(Cl)cnc1C(C)(C)C#N)c1ccc(C(=O)N[C@@H](CC2CCCC2)C(=O)NC2CC2)s1 (stereo partly shown)
R: CN(Cc1ccc(C(=O)N[C@@H](CC2CCCCC2)C(=O)NC2CCC(N(C)C)CC2)s1)c1cncc(Cl)c1 (stereo partly shown)
S: Cc1cc(NC(=O)[C@H](CC2CCCC2)NC(=O)c2cnc(C(C)Nc3cccc(Cl)c3)s2)cc(C)n1 (stereo partly shown)
Returns the items ordered by pIC50, from maximum to minimum. Form entry: labels listed in requested order.
P, R, S, Q
(P: 8.22, R: 7.51, S: 6.89, Q: 6.39)

A: Cc1ncc(Cl)cc1N[C@@H](C)c1ccc(C(=O)N[C@@H](CC2CCCC2)C(=O)NC23CC(C#N)(C2)C3)s1
B: COc1cnc2ccc(NC(=O)[C@H](CC3CCCC3)NC(=O)c3ccc([C@H](C)Nc4cc(Cl)cnc4C)s3)cc2c1
Returns the identifier with the smallest measured pIC50 among A and B . Identify your pick by its label.
A
(A: 8.00, B: 8.40)

---

system: recombinant His-tag Wip1(2-420) protein (amino acids #2-420) (Homo sapiens (Human))
assay procedure: Wip1(2-420) phosphatase enzyme FDP assay
measurement context: fluorescein diphosphate (FDP) substrate, RT 2 hours, fluorescence Ex485/Em535; read-out: WIP1 (Truncated 2-420) FDP Assay: IC50
pIC50: −log10 of the molar value.
readout kind: pIC50

For orientation, consider the following solved cases.
>>> df
                                   molecule  readout_kind  result_number
0  C[C@H](Nc1cc(Cl)cnc1C(N)=O)c1ccc(C(=O)N[C@@H](CC2CCCC2)C(=O)NC23CC(C2)C3)s1         pIC50           8.40
1  CC(Nc1ccc(F)c(Cl)c1)c1ccc(C(=O)N[C@@H](CC2CCCC2)C(=O)NC2CC2)s1 (some centres unmarked)         pIC50           7.22
2  CCc1ncc(Cl)cc1N[C@@H](C)c1ccc(C(=O)N[C@@H](CC2CCCC2)C(=O)NC2CC2)s1         pIC50           8.22
3  Cc1ncc(Cl)cc1N[C@@H](C)c1ccc(C(=O)N[C@@H](CC2CCCC2)C(=O)N[C@H]2C[C@H](C)C2)s1         pIC50           8.22
4  Cc1ncc(Cl)cc1NC(c1ccc(C(=O)N[C@@H](CC2CCCC2)C(=O)NC23CC(C2)C3)s1)C(F)(F)F (some centres unmarked)         pIC50           7.05
5  Cc1ncc(Cl)cc1NC(C)(C)c1ccc(C(=O)N[C@@H](CC2CCCC2)C(=O)N[C@H]2C[C@H](F)C2)s1         pIC50           8.00
6  CN(Cc1ncc(C(=O)N[C@@H](CC2CCCCC2)C(=O)Nc2ccncc2)s1)c1cncc(Cl)c1 [Compound 287]         pIC50           8.22
7  COc1ccccc1-c1ncc(Cl)cc1N[C@H](C)c1ccc(C(=O)N[C@@H](CC2CCCC2)C(=O)NC2CC2)s1         pIC50           6.48
8  Cc1ncc(Cl)cc1N[C@@H](C)c1ccc(C(=O)N[C@@H](CC2CCCC2)C(=O)N[C@H]2C[C@@H](C)C2)s1         pIC50           8.15
9  O=C(N[C@@H](CC1CCCC1)C(=O)NC1CC1)c1ccc([C@H]2CCc3c(Cl)cccc3N2)s1         pIC50           6.17

1: CC[C@@H](Nc1cc(Cl)cnc1C)c1ccc(C(=O)N[C@@H](CC2CCCC2)C(=O)NC23CC(C#N)(C2)C3)s1
2: Cc1ncc(Cl)cc1N[C@@H](C)c1ccc(C(=O)N[C@@H](CC2CCCC2)C(=O)Nc2ccc3cnccc3c2)s1
Hi team, can someone confirm which has the larger pIC50: 1 or 2 ? Thanks. Identify your pick by its label.
2

I: C[C@H](Nc1cc(Cl)cnc1C(=O)O)c1ccc(C(=O)N[C@@H](CC2CCCC2)C(=O)NC2CC2)s1
II: Cc1cc(NC(=O)[C@H](CC2CCCCC2)NC(=O)c2ccc([C@H](C)Nc3cc(Cl)cnc3C)s2)ccn1
Returns the identifier with the smallest measured pIC50 among I and II . Identify your pick by its label.
I
(I: 7.85, II: 8.10)

---

system: recombinant His-tag Wip1(2-420) protein (amino acids #2-420) (Homo sapiens (Human), UniProt O15297)
Sequence (O15297 2-420): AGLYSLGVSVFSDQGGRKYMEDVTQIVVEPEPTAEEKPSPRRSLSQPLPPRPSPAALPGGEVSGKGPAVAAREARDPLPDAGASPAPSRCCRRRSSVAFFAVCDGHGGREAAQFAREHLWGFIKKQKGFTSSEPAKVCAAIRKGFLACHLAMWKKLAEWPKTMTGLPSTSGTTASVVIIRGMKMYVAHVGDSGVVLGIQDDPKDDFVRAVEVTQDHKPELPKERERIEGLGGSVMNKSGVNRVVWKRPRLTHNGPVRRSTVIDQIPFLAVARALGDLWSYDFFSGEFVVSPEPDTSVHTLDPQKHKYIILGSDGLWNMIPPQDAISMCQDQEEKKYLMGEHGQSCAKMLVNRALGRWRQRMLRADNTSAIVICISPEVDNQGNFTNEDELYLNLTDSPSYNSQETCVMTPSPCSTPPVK
assay procedure: Wip1(2-420) phosphatase enzyme FDP assay
measurement context: fluorescein diphosphate (FDP) substrate, RT 2 hours, fluorescence Ex485/Em535; read-out: WIP1 (Truncated 2-420) FDP Assay: IC50
readout kind: IC50 (nM)

For orientation, consider the following solved cases.
>>> print(df.to_string())
                                   compound  result_number
0  Cc1ncc(Cl)cc1N[C@@H](C)c1ccc(C(=O)N[C@@H](CC2CC3CC3C2)C(=O)NC2CC2)s1 (some centres unmarked) [Compound 201]              7
1  Cc1ncc(Cl)cc1N[C@@H](C)c1ccc(C(=O)N[C@@H](CC2CCCC2)C(=O)Nc2ccnc(C(N)=O)c2)s1 [Compound 135]              5

P: COc1ncc(Cl)cc1N[C@@H](C)c1ccc(C(=O)N[C@@H](CC2CCCC2)C(=O)N[C@@H]2CC2(F)F)s1 [Compound 40]
Q: CC(Nc1cc(Cl)cnc1C(C)(C)O)c1ccc(C(=O)N[C@@H](CC2CCCC2)C(=O)NC2CC2)s1 (some centres unmarked) [Compound 203]
R: C[C@@H](Nc1cc(Cl)cnc1C(C)(C)O)c1ccc(C(=O)N[C@@H](CC2CCCC2)C(=O)NC2CC2)s1 [Compound 193]
Returns the items ordered by IC50, from maximum to minimum. Form entry: labels listed in requested order.
R, P, Q

A: Cc1ncc(Cl)cc1N[C@@H](C)c1ccc(C(=O)N[C@@H](CC2CCCC2)C(=O)Nc2cnn(C(C)(C)C)c2)s1 [Compound 149]
B: CC[C@@H](Nc1cc(Cl)cnc1C)c1ccc(C(=O)N[C@@H](CC2CCCC2)C(=O)N[C@H]2CC2(F)F)s1 [Compound 51]
C: Cc1ncc(Cl)cc1N[C@@H](C)c1ncc(C(=O)N[C@@H](CC2CCCC2)C(=O)NC2CC2)s1 [Compound 279]
D: COc1cccc(-c2ncc(Cl)cc2N[C@@H](C)c2ccc(C(=O)N[C@@H](CC3CCCC3)C(=O)NC3CC3)s2)c1 [Compound 267]
// smallest IC50 at index 0, largest at the end Form entry: labels listed in requested order.
A, D, C, B

---

system: recombinant His-tag Wip1(2-420) protein (amino acids #2-420) (Homo sapiens (Human), UniProt O15297)
assay procedure: Wip1(2-420) phosphatase enzyme FDP assay
measurement context: fluorescein diphosphate (FDP) substrate, RT 2 hours, fluorescence Ex485/Em535; read-out: WIP1 (Truncated 2-420) FDP Assay: IC50
pIC50: −log10 of the molar value.
readout kind: pIC50

For orientation, consider the following solved cases.
                                   compound  readout_kind  result_number
0  Cc1ncc(Cl)cc1N[C@@H](C)c1ccc(C(=O)N[C@@H](CC2CCCC2)C(=O)NC2CC(C)C2)s1 (stereo partly shown)         pIC50           8.15
1  Cc1ncc(Cl)cc1N[C@@H](C)c1ccc(C(=O)N[C@@H](CC2CCCC2)C(=O)N[C@H]2CC2(F)F)s1         pIC50           8.30
2  O=C(N[C@@H](CC1CCCCC1)C(=O)NC1CC1)c1cnc(CN2CCc3ccc(C(F)(F)F)cc32)s1         pIC50           7.08
3  COCCN1CCCc2cc(NC(=O)[C@H](CC3CCCC3)NC(=O)c3ccc([C@H](C)Nc4cc(Cl)cnc4C)s3)ccc21         pIC50           8.15

I: Cc1ncc(Cl)cc1N[C@@H](C)c1ccc(C(=O)N[C@@H](CC2CCCC2)C(=O)Nc2ccc(C#N)cc2)s1
II: Cc1ncc(Cl)cc1N[C@H](C)c1ccc(C(=O)N[C@@H](CC2CCCC2)C(=O)N[C@@H]2CC2(F)F)s1
Returns the identifier with the smallest measured pIC50 among I and II . Identify your pick by its label.
II
(II: 6.50, I: 8.15)

a: CN(Cc1ncc(C(=O)N[C@@H](CC2CCCCC2)C(=O)Nc2ccncc2)s1)c1cncc(Cl)c1 [Compound 301]
b: C[C@H](Nc1cccc(Cl)c1)c1ncc(C(=O)N[C@@H](CC2CCCC2)C(=O)NC2CC2)s1
Returns the identifier with the smallest measured pIC50 among a and b . Identify your pick by its label.
b
(b: 6.04, a: 7.38)

a: Cc1ncc(Cl)cc1N[C@@H](C)c1ccc(C(=O)N[C@@H](CC2CCC3CC32)C(=O)N[C@H]2C[C@H](F)C2)s1 (stereo partly shown)
b: Cc1ncc(Cl)cc1N[C@@H](C)c1ccc(C(=O)N[C@@H](CC2CCCC2)C(=O)N[C@@H]2C[C@@H]2F)s1
Returns the identifier with the smallest measured pIC50 among a and b . Identify your pick by its label.
a
